Data provenance is patent US20250388633A1.

biological target: growth factor receptors; assay: cell-based or functional assay
quantity kind: p-Smad1/5/8 (%) (quantification of western blots of phospho-smad1/5/8)

binder	test value
NDEGLESVPTEESAISMLYL [SEQ ID NO: 56]	28
SSVKSQPSRVHHKPLSMLYV [SEQ ID NO: 62]	31
NDEGLESVPTEERSVKVAKV [SEQ ID NO: 63]	34
SSVKSQPSRVHHSPISILFI [SEQ ID NO: 57]	41
VVPKPSSAPTQLEPISILYL [SEQ ID NO: 59]	29
SIPKASSTPTELSPINMLYF [SEQ ID NO: 54]	32
ASASPSSVSQDLSSLSILFF [SEQ ID NO: 58]	37
